// bioavailability lookup, one value per entry
test: in vivo; conditions: rat
The response must be a number in % with no trailing unit.

{"Compound": "COc1cc(C(=O)NS(=O)(=O)c2ccccc2C)ccc1Cc1cn(C)c2ccc(NC(=O)OC3CCCC3)cc12 [ZAFIRLUKAST]", "Measurement Units": "%", "bioavailability": 25}

Next up:
Request: Which bioavailability value belongs to CC(C)(O)c1ccccc1CC[C@@H](SCC1(CC(=O)O)CC1)c1cccc(/C=C/c2ccc3ccc(Cl)cc3n2)c1 [MONTELUKAST] ?
Result: 63
